Quick list: protein stability index per entry.
B1: FEM1A (parent)
chain: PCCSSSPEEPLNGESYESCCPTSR

# Variants of: B1
# Run description: protein stability index of a GFP-peptide fusion (GPS, HEK-293T) (PSI 1-6); higher = more stable;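 note: lentivirally expressed fusions sorted by FACS into six bins by GFP to DsRed ratio, PSI derived from sequencing read proportions per bin multiplied by bin number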
# Measurement conditions: c terminus: a fixed tail appended
Could you respond with only the numeric value?

Inquiry: # return recorded protein stability index for entry PMCSSSPEEPLNGESYESCCPTSR [C2M]
Reply text: 4.98

Inquiry: # return recorded protein stability index for entry PCCSSSPEEPLNGEQYESCCPTSR [S15Q]
Reply text: 3.52

Inquiry: # return recorded protein stability index for entry PCCSSSPEEPLNQESYESCCPTSR [G13Q]
Reply text: 4.43

Inquiry: # return recorded protein stability index for entry PCCSSSPEEPLNMESYESCCPTSR [G13M]
Reply text: 3.29

Inquiry: # return recorded protein stability index for entry MCCSSSPEEPLNGESYESCCPTSR [P1M]
Reply text: 3.67

Inquiry: # return recorded protein stability index for entry PCCSCSPEEPLNGESYESCCPTSR [S5C]
Reply text: 3.38
